Tested on: HCC1599
Assay: normalised response (% of control), CellTox Green; higher = less cell death (100 = DMSO, 0 = benzethonium chloride kill control)
Conditions: incubation time: 72 h
Recorded Endpoint: normalised response (%)
Could you give me the number in %? Just the number is fine.

Q: Need normalised response, item CO[C@@H]1[C@H](N(C)C(=O)c2ccccc2)C[C@H]2O[C@]1(C)n1c3ccccc3c3c4c(c5c6ccccc6n2c5c31)C(=O)NC4 [Midostaurin] (1000 nM)
Ans: 74

Q: Need normalised response, item CC(C)(C)NC(=O)[C@H]1CC[C@H]2[C@@H]3CC[C@H]4NC(=O)C=C[C@]4(C)[C@H]3CC[C@]12C [Finasteride] (1000 nM)
Ans: 100

Q: Need normalised response, item CN[C@@H](C)C(=O)N[C@H]1CN(C(=O)CC(C)C)CC[C@H]2CC[C@@H](C(=O)NC(c3ccccc3)c3ccccc3)N2C1=O [AT-406] (1000 nM)
Ans: 93.1

Q: Need normalised response, item CC1(C)CCC(c2ccc(Cl)cc2)=C(CN2CCN(c3ccc(C(=O)NS(=O)(=O)c4ccc(N[C@H](CCN5CCOCC5)CSc5ccccc5)c(S(=O)(=O)C(F)(F)F)c4)cc3)CC2)C1 [Navitoclax] (100 nM)
Ans: 101

Q: Need normalised response, item C=CCN(/C=C1/C(=O)O[C@H](COC)[C@@]2(C)C1=C(O)C(=O)C1=C2[C@H](OC(C)=O)C[C@]2(C)C(=O)CC[C@@H]12)CC=C [Sonolisib] (10000 nM)
Ans: 113

Q: Need normalised response, item O=C(O)CNC(=O)c1c(O)c2ccccc2n(Cc2ccccc2)c1=O [IOX-2] (500 nM)
Ans: 99.3

Q: Need normalised response, item CC(=O)[C@]1(O)Cc2c(O)c3c(c(O)c2[C@@H](O[C@H]2C[C@H](N)[C@H](O)[C@H](C)O2)C1)C(=O)c1ccccc1C3=O [Idarubicin] (1000 nM)
Ans: 109

----------
System: HCC1937
Assay: normalised response (% of control), CellTiter-Glo; higher = more viable cells (100 = DMSO, 0 = benzethonium chloride kill control)
Conditions: incubation time: 72 h
Recorded Endpoint: normalised response (%)
Could you give me the number in %? Just the number is fine.

Q: Need normalised response, item O=C(CCCCCCC(=O)Nc1ccccc1)NO [Vorinostat] (1 nM)
Ans: 99

Q: Need normalised response, item CC(C)(C)c1nc(-c2cccc(NS(=O)(=O)c3c(F)cccc3F)c2F)c(-c2ccnc(N)n2)s1 [Dabrafenib] (0.25 nM)
Ans: 106

Q: Need normalised response, item CCn1c(C(=O)N(C2CC2)C2CC2)cc2c3c(ncn3C)c(Nc3cc(C)n(C)n3)nc21 (1 nM)
Ans: 105

Q: Need normalised response, item CCNC(=O)c1noc(-c2cc(C(C)C)c(O)cc2O)c1-c1ccc(CN2CCOCC2)cc1 [NVP-AUY922] (0.1 nM)
Ans: 104

Q: Need normalised response, item CCN(CC)CCCC(C)Nc1ccnc2cc(Cl)ccc12 (stereo unspecified) [Chloroquine] (10 nM)
Ans: 95.3

Q: Need normalised response, item CNC(=O)c1ccccc1Sc1ccc2c(/C=C/c3ccccn3)n[nH]c2c1 [Axitinib] (1000 nM)
Ans: 88.6

Q: Need normalised response, item Nc1ccn([C@@H]2O[C@H](CO)[C@@H](O)C2(F)F)c(=O)n1 [Gemcitabine] (100 nM)
Ans: 79.2

Q: Need normalised response, item CO[C@@]12[C@H](COC(N)=O)C3=C(C(=O)C(C)=C(N)C3=O)N1C[C@@H]1N[C@@H]12 [Mitomycin C] (1000 nM)
Ans: 95.2

Q: Need normalised response, item CN(C)C(=N)NC(=N)N [Metformin] (10 nM)
Ans: 90.6

Q: Need normalised response, item Cc1nc(C(=O)NCC(=O)O)c(O)c2ccc(Oc3ccccc3)cc12 [FG-4592] (10 nM)
Ans: 105

Q: Need normalised response, item Cc1cc(Nc2nc(N[C@@H](C)c3ncc(F)cn3)ncc2Cl)[nH]n1 [AZD1480] (0.1 nM)
Ans: 102

----------
Test system: HCC1143
Assay: drug sensitivity score (DSS), CellTiter-Glo (DSS (AUC-based score)); higher = stronger drug effect (viability inhibition or cytotoxicity); extreme values may be limits of the assay
Details: incubation time: 72 h
For each of the molecules below, state its drug sensitivity score.
No unit in the answer, only the number.

Q: Need drug sensitivity score, item O=C(CCCCCCC(=O)Nc1ccccc1)NO
Ans: 4.04

Q: Need drug sensitivity score, item O=C(O)CNC(=O)c1c(O)c2ccccc2n(Cc2ccccc2)c1=O
Ans: 0

Q: Need drug sensitivity score, item CC1(C)CCC(c2ccc(Cl)cc2)=C(CN2CCN(c3ccc(C(=O)NS(=O)(=O)c4ccc(N[C@H](CCN5CCOCC5)CSc5ccccc5)c(S(=O)(=O)C(F)(F)F)c4)cc3)CC2)C1
Ans: 0

Q: Need drug sensitivity score, item CC(C)C[C@H](NC(=O)[C@@H](COC(C)(C)C)NC(=O)[C@H](Cc1ccc(O)cc1)NC(=O)[C@H](CO)NC(=O)[C@H](Cc1c[nH]c2ccccc12)NC(=O)[C@H](Cc1cnc[nH]1)NC(=O)[C@@H]1CCC(=O)N1)C(=O)N[C@@H](CCCNC(=N)N)C(=O)N1CCC[C@H]1C(=O)NNC(N)=O
Ans: 0

----------
For each of the compounds below, state its normalised response.
System: HCC1937
Assay: normalised response (% of control), CellTiter-Glo; higher = more viable cells (100 = DMSO, 0 = benzethonium chloride kill control)
Settings: incubation time: 72 h
Could you give me the number in %? Just the number is fine.

Q: Need normalised response, item CCN(CC)CCCC(C)Nc1ccnc2cc(Cl)ccc12 (stereo unspecified) [Chloroquine] (1000 nM)
Ans: 90.6

Q: Need normalised response, item Cn1cc(C2=C(c3cn(C4CCN(Cc5ccccn5)CC4)c4ccccc34)C(=O)NC2=O)c2ccccc21 [Enzastaurin] (100 nM)
Ans: 101

Q: Need normalised response, item CC[C@H](CO)Nc1nc(NCc2ccccc2)c2ncn(C(C)C)c2n1 [Seliciclib] (100 nM)
Ans: 94.2

Q: Need normalised response, item Cc1cn(-c2cc(NC(=O)c3ccc(C)c(Nc4nccc(-c5cccnc5)n4)c3)cc(C(F)(F)F)c2)cn1 [Nilotinib] (100 nM)
Ans: 95.4

Q: Need normalised response, item CNC(=O)c1ccccc1Sc1ccc2c(/C=C/c3ccccn3)n[nH]c2c1 [Axitinib] (100 nM)
Ans: 97.8

Q: Need normalised response, item CN[C@@H](C)C(=O)N[C@H]1CN(C(=O)CC(C)C)CC[C@H]2CC[C@@H](C(=O)NC(c3ccccc3)c3ccccc3)N2C1=O [AT-406] (100 nM)
Ans: 103

----------
Test system: CAL-51
Assay: normalised viability (% of control), CellTiter-Blue; higher = more viable cells (about 100 = DMSO control)
Settings: 100 nM; incubation time: 72 h
For each of the compounds below, state its normalised viability.
Could you give me the number in %? Just the number is fine.

Q: Need normalised viability, item CO[C@@]12[C@H](COC(N)=O)C3=C(C(=O)C(C)=C(N)C3=O)N1C[C@@H]1N[C@@H]12
Ans: 107

Q: Need normalised viability, item CC(O)(CS(=O)(=O)c1ccc(F)cc1)C(=O)Nc1ccc(C#N)c(C(F)(F)F)c1 (centres undefined) [Bicalutamide]
Ans: 99.1

Q: Need normalised viability, item CNC(=O)c1ccccc1Sc1ccc2c(/C=C/c3ccccn3)n[nH]c2c1
Ans: 98.2

Q: Need normalised viability, item COc1cc(Nc2c(C#N)cnc3cc(OCCCN4CCN(C)CC4)c(OC)cc23)c(Cl)cc1Cl
Ans: 120

----------
For each of the compounds below, state its normalised response.
Tested on: CAL-148
Assay: normalised response (% of control), CellTiter-Glo; higher = more viable cells (100 = DMSO, 0 = benzethonium chloride kill control)
Settings: incubation time: 72 h
Could you give me the number in %? Just the number is fine.

Q: Need normalised response, item CO[C@@]12[C@H](COC(N)=O)C3=C(C(=O)C(C)=C(N)C3=O)N1C[C@@H]1N[C@@H]12 [Mitomycin C] (100 nM)
Ans: 89.6

Q: Need normalised response, item CCn1c(C(=O)N(C2CC2)C2CC2)cc2c3c(ncn3C)c(Nc3cc(C)n(C)n3)nc21 (100 nM)
Ans: 103

Q: Need normalised response, item CCNC(=O)c1noc(-c2cc(C(C)C)c(O)cc2O)c1-c1ccc(CN2CCOCC2)cc1 [NVP-AUY922] (10 nM)
Ans: 114

Q: Need normalised response, item CC(C)C[C@H](NC(=O)[C@@H](COC(C)(C)C)NC(=O)[C@H](Cc1ccc(O)cc1)NC(=O)[C@H](CO)NC(=O)[C@H](Cc1c[nH]c2ccccc12)NC(=O)[C@H](Cc1cnc[nH]1)NC(=O)[C@@H]1CCC(=O)N1)C(=O)N[C@@H](CCCNC(=N)N)C(=O)N1CCC[C@H]1C(=O)NNC(N)=O [Goserelin] (100 nM)
Ans: 93.8

Q: Need normalised response, item CC(C)n1cnc2c(NCCc3ccc(O)cc3)nc(-c3csc4ccccc34)nc21 [StemRegenin 1] (100 nM)
Ans: 103

Q: Need normalised response, item CNC(=O)c1ccccc1Sc1ccc2c(/C=C/c3ccccn3)n[nH]c2c1 [Axitinib] (100 nM)
Ans: 112

Q: Need normalised response, item COc1ccc(S(=O)(=O)Nc2cccnc2Nc2ccc(O)cc2)cc1 [ABT-751] (100 nM)
Ans: 96.6

The measurements presented in this section are drawn from the supplement of paper PMC4862054.
